The reported numbers originate from patent US20210380703A1.

biological target: Human Fc (human); assay: ELISA; negative control
METRIC: optical density (OD)
Just the number please, in OD, no unit attached.

Quick check: optical density of 365_D10 (antibody, V domains shown) VH: EVQLLESGGGLVQPGGSLRLSCAASGFTFSSYSMNWVRQAPGKGLEWVAGINYNGGYTGYADSVKGRFTISRDNSKNTLYLQMNSLRAEDTAVYYCARGATWHDTHLDYWGQGTLVTVSS VL: DIQMTQSPSSLSASVGDRVTITCRASQSISTYLNWYQQKPGKAPKLLIYAATSRASGVPSRFSGSGSGTDFTLTISSLQPEDFATYYCQQSYESPLTFGGGTKVEIK ? 0.641

For the binder 365_F05 (antibody, V domains shown) VH: EVQLLESGGGLVQPGGSLRLSCAASGFTFSSYGMNWVRQAPGKGLEWVASINYNGGYTSYADSVKGRFTISRDNSKNTLYLQMNSLRAEDTAVYYCARGATWHDTHLDYWGQGTLVTVSS VL: DIQMTQSPSSLSASVGDRVTITCRASQSIVTYVNWYQQKPGKAPKLLIYAATSRASGVPSRFSGSGSGTDFTLTISSLQPEDFATYYCQQSYETPLTFGGGTKVEIK , what optical density is on record? 0.376

Any idea what its optical density is? The binder is 368_G03 (antibody, V domains shown) VH: EVQLLESGGGLVQPGGSLRLSCAASGFTFSSYSMNWVRQAPGKGLEWVSGINYNSGYTSYADSVKGRFTISRDNSKNTLYLQMNSLRAEDTAVYYCARGATWHDTALDYWGQGTLVTVSS VL: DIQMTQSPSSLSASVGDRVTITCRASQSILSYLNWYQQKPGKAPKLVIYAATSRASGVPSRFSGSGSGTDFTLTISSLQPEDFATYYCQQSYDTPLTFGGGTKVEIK 0.312
